Ref: the supplement of paper PMC6135742

Test system: jimpy (Plp1 jimpy) mouse iPSC-derived oligodendrocyte progenitor cells;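 also: 10 µM single dose with 3-day oligodendrocyte differentiation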
experiment summary: MBP+ mature oligodendrocyte number relative to DMSO vehicle control (SDs above negative control mean); higher = more surviving jimpy oligodendrocytes (rescue)
conditions used: 10 µM; 3 days
Where a name gives a salt, the structure may show the parent alone. Whole data set: some 2,600 compounds, median “MBP+ mature oligodendrocyte number relative to DMSO vehicle control” near -0.34, cut for the highest 2% near 13. Many of the other results were omitted from the sample, so the highest values are more common in it than they were.
Would you please tag the item criterion met when its MBP+ mature oligodendrocyte number is -2 or above, and criterion not met when it is below?

See these solved cases before continuing.
| compound | system tested | label value |
| --- | --- | --- |
| Cc1ccc(NCCCc2ccccc2)c(N)c1 | jimpy (Plp1 jimpy) mouse iPSC-derived oligodendrocyte progenitor cells | criterion not met |
| CC(C(=O)O)c1ccc(-c2ccccc2)c(F)c1 (centres undefined) | jimpy (Plp1 jimpy) mouse iPSC-derived oligodendrocyte progenitor cells | criterion met |
| NCCCCC(=O)O [5-Aminovaleric acid hydrochloride] | jimpy (Plp1 jimpy) mouse iPSC-derived oligodendrocyte progenitor cells | criterion met |
| CO[C@@H](C(=O)N1Cc2[nH]nc(NC(=O)c3ccc(N4CCN(C)CC4)cc3)c2C1)c1ccccc1 | jimpy (Plp1 jimpy) mouse iPSC-derived oligodendrocyte progenitor cells | criterion not met |
| COc1ccc(-c2oc3c(CC=C(C)C)c(O)cc(O)c3c(=O)c2O)cc1 | jimpy (Plp1 jimpy) mouse iPSC-derived oligodendrocyte progenitor cells | criterion not met |

Q: Is reported MBP+ mature oligodendrocyte number greater than or equal to -2 here: Cc1cc(C(=O)NOCCO)c(Nc2ccc(I)cc2F)n(C)c1=O
A: criterion met

Q: Is reported MBP+ mature oligodendrocyte number greater than or equal to -2 here: CC(C)C[C@H](C(=O)O)c1cc(-c2ccc(C(F)(F)F)cc2)cc(-c2ccc(C(F)(F)F)cc2)c1
A: criterion met

Q: Is reported MBP+ mature oligodendrocyte number greater than or equal to -2 here: Nc1cc2c(ncn2CCOCP(=O)(O)O)c(=O)[nH]1 [PMEG hydrate]
A: criterion met

Q: Is reported MBP+ mature oligodendrocyte number greater than or equal to -2 here: NC(=O)[C@@H](CCC(F)(F)F)N(Cc1ccc(-c2ncon2)cc1F)S(=O)(=O)c1ccc(Cl)cc1
A: criterion met
